System: GH3-TRE-Luc cell line
Experimental context: read-out: AC50 (uM) modified / 1000; Tox21_110001=Tox21_202070; viability, 1 nM T3 present, 24 h
Where a name gives a salt, the structure may show the parent alone.
Parameter measured: CC50 (µM)
Give the value, in units of µM, as a plain number.

## Input Item: CC/C(=C(\c1ccccc1)c1ccc(OCCN(C)C)cc1)c1ccccc1 [Tamoxifen citrate] Test system: GH3-TRE-Luc cell line Read-out: CC50 Value: ?
## Output 10.9

---

System: thyroid hormone receptor (endogenous TRα and TRβ)
Protocol: GH3-TRE-Ag-Followup confirmation (TOX21_TR_LUC_GH3_Agonist_Followup, aeid 2226)
Type: cell-based, rat
Experimental context: confirmation, agonist mode; read-out: GH3-TRE-Ag-Followup AC50
Listing of recorded AC50 by entry.
Please don't drop the unit; write it after the number.

The examples below pair each entry with its known result.
{"Molecule": "CC1=C(/C=C/C(C)=C/C=C/C(C)=C/C(=O)O)C(C)(C)CCC1 [all trans-Retinoic acid, reference compound]", "Target or system": "thyroid hormone receptor (endogenous TRα and TRβ)", "AC50": "1160 nM"}
{"Molecule": "O=C(O)Cc1cc(I)c(Oc2cc(I)c(O)c(I)c2)c(I)c1 [Tetrac, 3,3ʹ,5,5ʹ-tetraiodothyroacetic acid]", "Target or system": "thyroid hormone receptor (endogenous TRα and TRβ)", "AC50": "6 nM"}
{"Molecule": "CC1=C(/C=C/C(C)=C/C=C/C(C)=C\\C(=O)O)C(C)(C)CCC1 [13-cis Retinoic acid, reference compound]", "Target or system": "thyroid hormone receptor (endogenous TRα and TRβ)", "AC50": "34.8 nM"}
{"Molecule": "C=C(c1ccc(C(=O)O)cc1)c1cc2c(cc1C)C(C)(C)CCC2(C)C [Bexarotene, reference compound]", "Target or system": "thyroid hormone receptor (endogenous TRα and TRβ)", "AC50": "17 nM"}
{"Molecule": "Cc1cc(NC(=O)C(=O)O)cc(C)c1Oc1ccc(O)c2c1CCC2 [CP-634384, reference compound]", "Target or system": "thyroid hormone receptor (endogenous TRα and TRβ)", "AC50": "18 nM"}
{"Molecule": "N[C@@H](Cc1ccc(Oc2cc(I)c(O)c(I)c2)c(I)c1)C(=O)O [3,3ʹ,5ʹ-Triiodo-L-thyronine]", "Target or system": "thyroid hormone receptor (endogenous TRα and TRβ)", "AC50": "537 nM"}

## Input Form field - read-out: AC50; system: thyroid hormone receptor (endogenous TRα and TRβ); submitted item: CSCC[C@H](NC(=O)[C@H](Cc1ccc(OS(=O)(=O)O)cc1)NC(=O)[C@@H](N)CC(=O)O)C(=O)NCC(=O)N[C@@H](Cc1c[nH]c2ccccc12)C(=O)N[C@@H](CCSC)C(=O)N[C@@H](CC(=O)O)C(=O)N[C@@H](Cc1ccccc1)C(N)=O [Sincalide, reference compound]
## Output 8590 nM

## Input Give the reported AC50 for CC1=C(/C=C/C(C)=C\C=C\C(C)=C\C(=O)O)C(C)(C)CCC1 [9-cis Retinoic acid, reference compound] (system: thyroid hormone receptor (endogenous TRα and TRβ)).
## Output 2070 nM
